Target: SARS-CoV-2 nsp16/nsp10 (Severe acute respiratory syndrome coronavirus 2, UniProt P0DTD1)
Assay: biochemical
Settings: 100 μM
Endpoint Name: Percent inhibition at 100 μM, nsp16 (%)
A number alone suffices; assume %.

Which Percent inhibition at 100 μM, nsp16 value is on record for CC1(O)Cc2n[nH]c(O)c2C(c2ccccc2)C1 (centres unmarked) [ZINC000035326963] ?
-2

Same question for CCc1n[nH]c2c1CN(C(=O)c1cccc(-c3cc(O)nc(N)n3)c1)CC2 [ZINC000426470786] please.
8

Let us now turn to COc1ccc(CCNC(=O)C2C3C=CC4(CN(c5ccc6c(c5)OCO6)C(=O)C24)O3)cc1 (centres unmarked) [ZINC000012895535]
-15

Do the same for Cc1cc(=O)n2c(n1)NC(N1CCOCC1)=NC2c1ccccc1 (centres unmarked) [ZINC000104279901] please
-33

Next record, please: Cc1cc(=O)[nH]c(NCCNC(=O)c2cc(-c3cccn3C)n[nH]2)n1 [ZINC000091693861]
24
